Test system: Escherichia coli ATCC 25922
Experiment: Antimicrobial assay I, modified protocol (tryptic soy broth), MBC
Conditions: minimum bactericidal concentration, Table 4
No end group written: not given here.
Reported property: MBC E. coli A.25922

Some solved cases for reference:
Dear colleague, I am looking for the recorded MBC E. coli A.25922 of the following substance: FALAAKALKKLAKKLKKLAKKAL-NH2 [compound 23] 15 µg/mL

Check KWKLAKKALALL-NH2 [compound 142] too. INACT

Check FALKALKKLKKALKKAL-NH2 [compound 153] too. 10 µg/mL

Check FALAKLAKKAKAKLKKALKAL-NH2 [compound 26] too. >80 µg/mL

Check VAKLLAKLAKKVL-NH2 [compound 154] too. 50 µg/mL

Kindly consider the entry below.
Dear colleague, I am looking for the recorded MBC E. coli A.25922 of the following substance: FAKLLAKALKKAL-NH2 [compound 102] 25 µg/mL

---

For each entry below, report its MIC P. aeruginosa Tb 105663 value.
Tested on: Pseudomonas aeruginosa 105663
Format: cell-based
Settings: Table 9; in µg/mL

Dear colleague, I am looking for the recorded MIC P. aeruginosa Tb 105663 of the following molecule: CC(C)C[C@H](NC(=O)[C@H](C)NC(=O)[C@H](CC(C)C)NC(=O)[C@H](CCCCN)NC(=O)[C@H](C)NC(=O)[C@H](CC(C)C)NC(=O)[C@H](CCCCN)NC(=O)[C@H](CCCCN)NC(=O)[C@H](C)NC(=O)[C@H](CC(C)C)NC(=O)[C@H](CCCCN)NC(=O)[C@H](C)NC(=O)[C@H](CC(C)C)NC(=O)[C@H](CCCCN)NC(=O)[C@H](CCCCN)NC(=O)[C@H](C)NC(=O)[C@@H](N)Cc1ccccc1)C(=O)O 8

Check CC(C)C[C@H](NC(=O)[C@H](C)NC(=O)[C@H](CC(C)C)NC(=O)[C@H](C)NC(=O)[C@H](CC(C)C)NC(=O)[C@H](CCCCN)NC(=O)[C@H](C)NC(=O)[C@H](CC(C)C)NC(=O)[C@H](CCCCN)NC(=O)[C@H](CCCCN)NC(=O)[C@H](C)NC(=O)[C@H](CC(C)C)NC(=O)[C@H](CCCCN)NC(=O)[C@H](C)NC(=O)[C@H](CC(C)C)NC(=O)[C@H](CCCCN)NC(=O)[C@H](CCCCN)NC(=O)[C@H](C)NC(=O)[C@@H](N)C(C)C)C(N)=O too. 16

Check CC(C)C[C@H](NC(=O)[C@H](C)NC(=O)[C@H](CC(C)C)NC(=O)[C@H](CCCCN)NC(=O)[C@H](C)NC(=O)[C@H](CC(C)C)NC(=O)[C@H](CCCCN)NC(=O)[C@H](CCCCN)NC(=O)[C@H](C)NC(=O)[C@H](CC(C)C)NC(=O)[C@H](CCCCN)NC(=O)[C@H](C)NC(=O)[C@H](CC(C)C)NC(=O)[C@H](CCCCN)NC(=O)[C@H](CCCCN)NC(=O)[C@H](C)NC(=O)[C@@H](N)Cc1ccccc1)C(N)=O too. 4

Check CC(C)C[C@H](NC(=O)[C@H](C)NC(=O)[C@H](CC(C)C)NC(=O)[C@H](CCCCN)NC(=O)[C@H](C)NC(=O)[C@H](CC(C)C)NC(=O)[C@H](CCCCN)NC(=O)[C@H](CCCCN)NC(=O)[C@H](C)NC(=O)[C@H](CC(C)C)NC(=O)[C@H](CCCCN)NC(=O)[C@H](C)NC(=O)[C@H](CC(C)C)NC(=O)[C@H](CCCCN)NC(=O)[C@H](CCCCN)NC(=O)[C@H](C)NC(=O)[C@@H](N)C(C)C)C(N)=O too. 8
